pIC50: −log10 of the molar value.
MAP4K1 (HPK1) (Homo sapiens, UniProt Q92918) pIC50 data
Sequence (Q92918 whole entry): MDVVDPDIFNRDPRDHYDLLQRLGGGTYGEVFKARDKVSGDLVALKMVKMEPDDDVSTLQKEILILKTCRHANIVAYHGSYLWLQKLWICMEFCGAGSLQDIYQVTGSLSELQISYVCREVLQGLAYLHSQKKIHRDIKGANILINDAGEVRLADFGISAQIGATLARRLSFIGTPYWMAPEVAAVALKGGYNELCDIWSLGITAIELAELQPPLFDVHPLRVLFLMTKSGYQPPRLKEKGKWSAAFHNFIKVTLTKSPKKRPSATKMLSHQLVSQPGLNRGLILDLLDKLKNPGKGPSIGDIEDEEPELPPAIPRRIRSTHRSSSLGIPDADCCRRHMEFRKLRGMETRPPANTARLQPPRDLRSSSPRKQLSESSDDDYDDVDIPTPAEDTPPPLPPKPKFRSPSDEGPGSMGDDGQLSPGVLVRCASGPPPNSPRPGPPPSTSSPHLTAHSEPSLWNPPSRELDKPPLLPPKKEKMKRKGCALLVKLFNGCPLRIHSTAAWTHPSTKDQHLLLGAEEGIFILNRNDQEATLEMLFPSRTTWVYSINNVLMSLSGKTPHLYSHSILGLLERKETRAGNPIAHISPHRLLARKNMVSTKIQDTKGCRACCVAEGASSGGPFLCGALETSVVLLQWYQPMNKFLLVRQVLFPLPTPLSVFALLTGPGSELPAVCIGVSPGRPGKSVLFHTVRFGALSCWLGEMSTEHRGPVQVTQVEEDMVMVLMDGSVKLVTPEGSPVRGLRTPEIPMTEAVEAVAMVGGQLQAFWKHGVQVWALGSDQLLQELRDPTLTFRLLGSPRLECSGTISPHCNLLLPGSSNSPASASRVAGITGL
readout_label: pIC50

CC[C@@](C)(N)c1cnc(O[C@H](C)C[C@@H](C)S(C)(=O)=O)c2cnc(Nc3ccc4c(n3)C3(CC3)[C@@H](C)OC4=O)cc12 (single isomer, unassigned) | 9.77
CC[C@@](C)(N)c1cnc(O[C@H](C)C[C@@H](C)S(C)(=O)=O)c2cnc(Nc3ccc4c(n3)C(C)(C)COC4=O)cc12 | 9.68

a: CC[C@@](C)(N)c1cnc(O[C@H](C)CCS(=O)(=O)CC)c2cnc(Nc3ccc4c(n3)[C@@H](C)C(C)(C)OC4=O)cc12 (single isomer, unassigned)
b: CCS(=O)(=O)[C@H]1C[C@@H](Oc2ncc([C@](C)(N)COC)c3cc(Nc4ccc5c(n4)[C@@H](C)[C@H](C)OC5=O)ncc23)C1
c: C[C@H](CCS(C)(=O)=O)Oc1ncc(C(C)(C)N)c2cc(Nc3ccc4c(n3)[C@@H](C)C(C)(C)OC4=O)ncc12 (single isomer, unassigned)
d: CC[C@@H](CCS(C)(=O)=O)Oc1ncc([C@](C)(N)CC)c2cc(Nc3ccc4c(n3)[C@@H](C)[C@H](C)OC4=O)ncc12 (single isomer, unassigned) [Compound 84]
Req: Returns the items ordered by pIC50, from maximum to minimum. Enter labels, ranked according to the request.
Resp: b, a, c, d
(b: 10.00, a: 9.70, c: 9.44, d: 9.13)

###

pIC50: −log10 of the molar value.
pIC50 values recorded for MAP4K1 (HPK1) (Homo sapiens)
readout_label: pIC50

COC[C@@](C)(N)c1cnc(O[C@H]2C[C@H](CS(C)(=O)=O)C2)c2cnc(Nc3ccc4c(n3)[C@@H](C)[C@H](C)OC4=O)cc12 [Compound 120] | 9.28
CCS(=O)(=O)[C@H](C)C[C@@H](C)Oc1ncc([C@H](N)C2CC2)c2cc(Nc3ccc4c(n3)[C@@H](C)C(C)(C)OC4=O)ncc12 (single isomer, unassigned) [Compound 138] | 9.52
COC[C@@](C)(N)c1cnc(O[C@H](C)C[C@@H](C)S(C)(=O)=O)c2cnc(Nc3ccc4c(n3)[C@@H](C)[C@H](C)OC4=O)cc12 [Compound 134] | 9.32

###

# Test system: Primary T Cell (expanded CD3+ T cells)
# assay_name: T cell enhancement of cytokines: IL2 measurement (HTRF) in stimulated expanded CD3+ T cells
# Assay type: cell-based, human
# test_settings: Homo sapiens, T-cell, 24 h, plate-bound anti-CD3 and soluble anti-CD28, 24 h, IL2 by HTRF; read-out: IL-2 Primary T Cell EC50
readout_label: EC50 (µM)

C[C@H](C[C@@H](C)S(C)(=O)=O)Oc1ncc([C@H](N)C2CC2)c2cc(Nc3ccc4c(n3)[C@@H](C)C(C)(C)OC4=O)ncc12 (single isomer, unassigned) | 0.036

A: CC(C)(N)c1cnc(O[C@H]2C[C@@H](S(C)(=O)=O)C2)c2cnc(Nc3ccc4c(n3)C(C)(C)COC4=O)cc12
B: C[C@@H]1c2nc(Nc3cc4c(C(C)(C)N)cnc(N[C@H]5C[C@@H](S(C)(=O)=O)C5)c4cn3)ccc2C(=O)OC1(C)C
C: CCC[C@@](C)(N)c1cnc(O[C@H](C)CCS(C)(=O)=O)c2cnc(Nc3ccc4c(n3)[C@@H](C)[C@H](C)OC4=O)cc12 (single isomer, unassigned)
D: CC[C@@](C)(N)c1cnc(O[C@H](C)C[C@@H](C)S(C)(=O)=O)c2cnc(Nc3ccc4c(n3)[C@@H](C)C(C)(C)OC4=O)cc12
Req: Please produce an ascending ranking of these compounds based on EC50. As an answer, provide the labels arranged in the order called for.
Resp: D, C, A, B
(D: 0.007 µM, C: 0.026 µM, A: 0.039 µM, B: 0.25 µM)

###

# Tested on: Primary T Cell (expanded CD3+ T cells)
# assay_name: T cell enhancement of cytokines: IL2 measurement (HTRF) in stimulated expanded CD3+ T cells
# Format: cell-based, human
# test_settings: Homo sapiens, T-cell, 24 h, plate-bound anti-CD3 and soluble anti-CD28, 24 h, IL2 by HTRF; read-out: IL-2 Primary T Cell EC50
readout_label: EC50 (nM)

Examples with their reported EC50 follow.
CC[C@@](C)(N)c1cnc(O[C@H](C)C[C@@H](C)S(C)(=O)=O)c2cnc(Nc3ccc4c(n3)C3(CC3)[C@@H](C)OC4=O)cc12 (single isomer, unassigned) | 10
CC[C@@](C)(N)c1cnc(O[C@@H](C)CCS(C)(=O)=O)c2cnc(Nc3ccc4c(n3)[C@@H](C)[C@H](C)OC4=O)cc12 | 21

1: C[C@@H]1c2nc(Nc3cc4c(C(C)(C)N)cnc(O[C@H]5C[C@@H](S(=O)(=O)N(C)C)C5)c4cn3)ccc2C(=O)OC1(C)C
2: C[C@@H]1OC(=O)c2ccc(Nc3cc4c([C@](C)(N)C5CC5)cnc(O[C@H]5C[C@@H](S(C)(=O)=O)C5)c4cn3)nc2[C@H]1C
3: CC[C@@](C)(N)c1cnc(O[C@H]2C[C@@H](S(C)(=O)=O)C2)c2cnc(Nc3ccc4c(n3)[C@@H](C)C(C)(C)OC4=O)cc12
4: C[C@@H]1c2nc(Nc3cc4c(C(C)(C)N)cnc(O[C@H]5C[C@@H](S(=O)(=O)C6CC6)C5)c4cn3)ccc2C(=O)OC1(C)C
Req: Order the 4 compounds from highest to lowest EC50. // rank by listing labels in the order requested
Resp: 1, 4, 2, 3

###

# Tested on: Primary T Cell (expanded CD3+ T cells)
# assay_name: T cell enhancement of cytokines: IL2 measurement (HTRF) in stimulated expanded CD3+ T cells
# Assay type: cell-based, human
# test_settings: Homo sapiens, T-cell, 24 h, plate-bound anti-CD3 and soluble anti-CD28, 24 h, IL2 by HTRF; read-out: IL-2 Primary T Cell EC50
# Experimental: T cells are isolated from whole blood of healthy donors by immunomagnetic negative selection following manufacture's protocol (StemCell Technologies, human T cell isolation kit). Purity of isolated cells is assessed by flow cytometry and yields 95-98% CD3^+ T cells. […]
pEC50: −log10 of the molar value.
readout_label: pEC50

C[C@@H]1OC(=O)c2ccc(Nc3cc4c(C(C)(C)N)cnc(O[C@@H](C)C[C@@H]5CCCS5(=O)=O)c4cn3)nc2[C@H]1C (single isomer, unassigned) [Compound 155] | 7.77
COC[C@@](C)(N)c1cnc(O[C@H]2C[C@H](CS(C)(=O)=O)C2)c2cnc(Nc3ccc4c(n3)[C@@H](C)C(C)(C)OC4=O)cc12 [Compound 139] | 7.13
CCS(=O)(=O)[C@H]1C[C@@H](Nc2ncc(C(C)(C)N)c3cc(Nc4ccc5c(n4)[C@@H](C)C(C)(C)OC5=O)ncc23)C1 [Compound 64] | 6.98

a: COC[C@@](C)(N)c1cnc(O[C@H](C)C[C@@H](C)S(C)(=O)=O)c2cnc(Nc3ccc4c(n3)[C@@H](C)C(C)(C)OC4=O)cc12 [Compound 144]
b: CC[C@@](C)(N)c1cnc(O[C@H](C)CCS(C)(=O)=O)c2cnc(Nc3ccc4c(n3)C3(CC3)[C@@H](C)OC4=O)cc12 (single isomer, unassigned) [Compound 66]
Req: Out of a and b , name the one with the higher pEC50. Answer with the label corresponding to your selection.
Resp: b
